Parameter: melting point. Scope: all listed entries.

molecule	melting point
COc1ccc(Nc2ccc3c(c2)OCC2C3=NOC2CN2CCN(CC(C)=Cc3ccc(F)cc3)CC2)cc1 (stereo not drawn) [Compound 43]	131.7 to 134.5 °C
CC(=Cc1ccccc1)CN1CCN(CC2ON=C3c4ccc(N(C)c5ccccc5)cc4OCC32)CC1 (stereo not drawn) [Compound 41]	125.9 to 139.7 °C
CC(=Cc1ccc(F)cc1)CN1CCN(CC2ON=C3c4ccc(N5CCCC5)cc4OCC32)CC1 (stereo not drawn) [Compound 70]	194.7 to 204.9 °C

---

- assayed_target: hα2C receptor (Homo sapiens, UniProt P18825)
- Construct: expressed in transfected cells; host or cells: CHO cells
- assay: Radioligand binding experiment for α2C-adrenergic receptor ([3H]-raulwolscine)
- condition_context: CHO cell membranes with human α2C receptor, [3H]raulwolscine 1 nM; read-out: pIC50 α2C (converted)

compound	assayed_target	censoring_operator	IC50 [nM]
COc1cc2c(cc1N1CCCC1C)OCC1C2=NOC1CN1CCN(CC(C)=Cc2ccc(F)cc2)CC1 (stereo not drawn)	hα2C receptor (Homo sapiens, UniProt P18825)	=	31.6
CC(=Cc1ccc(F)cc1)CN1CCN(CC2ON=C3c4ccc(N5CCN(CC=Cc6ccccc6)CC5)cc4OCC32)CC1 (stereo not drawn)	hα2C receptor (Homo sapiens, UniProt P18825)	=	20
CC(=Cc1cccc(F)c1)CN1CCN(CC2ON=C3c4ccc(N(C)CCN(C)C)cc4OCC32)CC1 (stereo not drawn)	hα2C receptor (Homo sapiens, UniProt P18825)	=	1.26
C=CC(=O)Nc1ccc2c(c1)OCC1C2=NOC1CN1CCN(CC(C)=Cc2ccccc2)CC1 (stereo not drawn)	hα2C receptor (Homo sapiens, UniProt P18825)	=	0.794
C/C(=C\c1ccccc1)CN1CCN(CC2ON=C3c4ccc(N)cc4OCC32)CC1 (stereo not drawn)	hα2C receptor (Homo sapiens, UniProt P18825)	=	3.98
CC(=Cc1ccc(F)cc1)CN1CCN(CC2ON=C3c4ccc(N5CCN(c6ccccc6)CC5)cc4OCC32)CC1 (stereo not drawn)	hα2C receptor (Homo sapiens, UniProt P18825)	=	7.94
CC(=Cc1ccccc1)CN1CCN(CC2ON=C3c4ccc(NC(=O)C(C)(C)C)cc4OCC32)CC1 (stereo not drawn)	hα2C receptor (Homo sapiens, UniProt P18825)	=	1
C/C(=C\c1ccc(F)cc1)CN1CCN(CC2ON=C3c4ccc(NS(=O)(=O)c5ccc(C)cc5)cc4OCC32)CC1 (stereo not drawn)	hα2C receptor (Homo sapiens, UniProt P18825)	=	31.6
CC(=Cc1ccc(F)cc1)CN1CCN(CC2ON=C3c4ccc(N5CCCCC5)cc4OCC32)CC1 (stereo not drawn)	hα2C receptor (Homo sapiens, UniProt P18825)	=	6.31
CCN(CC)CCN(C)c1ccc2c(c1)OCC1C2=NOC1CN1CCN(CC(C)=Cc2ccc(F)cc2)CC1 (stereo not drawn)	hα2C receptor (Homo sapiens, UniProt P18825)	=	0.398
COc1cc2c(cc1N1CCN(C)CC1)OCC1C2=NOC1CN1CCN(CC(C)=Cc2ccccc2)CC1 (stereo not drawn)	hα2C receptor (Homo sapiens, UniProt P18825)	<	1
CCC(C)NC(=O)OCCN(C)c1ccc2c(c1)OCC1C2=NOC1CN1CCN(CC(C)=Cc2ccc(F)cc2)CC1 (stereo not drawn)	hα2C receptor (Homo sapiens, UniProt P18825)	=	158
CC(=O)Nc1ccc2c(c1)OCC1C2=NOC1CN1CCN(C/C(C)=C/c2ccccc2)CC1 (stereo not drawn)	hα2C receptor (Homo sapiens, UniProt P18825)	=	2.51
CC(=Cc1ccc(F)cc1)CN1CCN(CC2ON=C3c4ccc(N(C)CCN(C)C)cc4OCC32)CC1 (stereo not drawn)	hα2C receptor (Homo sapiens, UniProt P18825)	=	2
COc1cc2c(cc1NCCN(C)C)OCC1C2=NOC1CN1CCN(C/C(C)=C/c2ccccc2)CC1 (stereo not drawn)	hα2C receptor (Homo sapiens, UniProt P18825)	=	1000
CCC(C)Nc1cc2c(cc1OC)C1=NOC(CN3CCN(CC(C)=Cc4ccc(F)cc4)CC3)C1CO2 (stereo not drawn)	hα2C receptor (Homo sapiens, UniProt P18825)	=	50.1
CC(=Cc1ccc(F)cc1)CN1CCN(CC2ON=C3c4ccc(NC(C)C)cc4OCC32)CC1 (stereo not drawn)	hα2C receptor (Homo sapiens, UniProt P18825)	=	31.6
COc1cc2c(cc1NC(=O)C1CCC1)OCC1C2=NOC1CN1CCN(CC(C)=Cc2ccc(F)cc2)CC1 (stereo not drawn)	hα2C receptor (Homo sapiens, UniProt P18825)	=	39.8
COc1cc2c(cc1NCC1CC1C)OCC1C2=NOC1CN1CCN(CC(C)=Cc2ccc(F)cc2)CC1 (stereo not drawn)	hα2C receptor (Homo sapiens, UniProt P18825)	=	126
CC(=Cc1ccccc1)CN1CCN(CC2ON=C3c4ccc(N(C)c5ccccc5)cc4OCC32)CC1 (stereo not drawn)	hα2C receptor (Homo sapiens, UniProt P18825)	=	25.1
CC(=Cc1ccc(F)cc1)CN1CCN(CC2ON=C3c4ccc(N(C)CCNC5CCC5)cc4OCC32)CC1 (stereo not drawn)	hα2C receptor (Homo sapiens, UniProt P18825)	=	6.31
CC(=Cc1ccc(F)cc1)CN1CCN(CC2ON=C3c4ccc(N(C)CCNC(C)C(C)C)cc4OCC32)CC1 (stereo not drawn)	hα2C receptor (Homo sapiens, UniProt P18825)	=	5.01
COc1cc2c(cc1N(C)CCO)OCC1C2=NOC1CN1CCN(CC(C)=Cc2cccc(F)c2)CC1 (stereo not drawn)	hα2C receptor (Homo sapiens, UniProt P18825)	=	2.51
CC(=Cc1ccc(F)cc1)CN1CCN(CC2ON=C3c4ccc(NCCN5CCCC5)cc4OCC32)CC1 (stereo not drawn)	hα2C receptor (Homo sapiens, UniProt P18825)	=	3.98
CC(=Cc1ccccc1)CN1CCN(CC2ON=C3c4ccc(NC(=O)NC(C)(C)C)cc4OCC32)CC1 (stereo not drawn)	hα2C receptor (Homo sapiens, UniProt P18825)	=	2
CC(=Cc1ccc(F)cc1)CN1CCN(CC2ON=C3c4ccc(N5CCNCC5)cc4OCC32)CC1 (stereo not drawn)	hα2C receptor (Homo sapiens, UniProt P18825)	=	5.01
CC(=Cc1ccccc1)CN1CCN(CC2ON=C3c4ccc(N(C)CCO)cc4OCC32)CC1 (single isomer, unassigned) [Compound 33]	hα2C receptor (Homo sapiens, UniProt P18825)	=	39.8
COc1cc2c(cc1N(C)CCN(C)C)OCC1C2=NOC1CN1CCN(C/C(C)=C/c2ccccc2)CC1 (stereo not drawn)	hα2C receptor (Homo sapiens, UniProt P18825)	=	1.58
COc1cc2c(cc1NCCN1CCCC1)OCC1C2=NOC1CN1CCN(CC(C)=Cc2ccccc2)CC1 (stereo not drawn)	hα2C receptor (Homo sapiens, UniProt P18825)	<	1
CC(=Cc1ccccc1)CN1CCN(CC2ON=C3c4ccc(NC(=O)NC5CCCCC5)cc4OCC32)CC1 (stereo not drawn)	hα2C receptor (Homo sapiens, UniProt P18825)	=	6.31

---

Collected log10 IC50 values appear next to each entry.
- assayed_target: hα2C receptor (Homo sapiens)
- Construct: expressed in transfected cells; host or cells: CHO cells
- Sequence (P18825 1-462): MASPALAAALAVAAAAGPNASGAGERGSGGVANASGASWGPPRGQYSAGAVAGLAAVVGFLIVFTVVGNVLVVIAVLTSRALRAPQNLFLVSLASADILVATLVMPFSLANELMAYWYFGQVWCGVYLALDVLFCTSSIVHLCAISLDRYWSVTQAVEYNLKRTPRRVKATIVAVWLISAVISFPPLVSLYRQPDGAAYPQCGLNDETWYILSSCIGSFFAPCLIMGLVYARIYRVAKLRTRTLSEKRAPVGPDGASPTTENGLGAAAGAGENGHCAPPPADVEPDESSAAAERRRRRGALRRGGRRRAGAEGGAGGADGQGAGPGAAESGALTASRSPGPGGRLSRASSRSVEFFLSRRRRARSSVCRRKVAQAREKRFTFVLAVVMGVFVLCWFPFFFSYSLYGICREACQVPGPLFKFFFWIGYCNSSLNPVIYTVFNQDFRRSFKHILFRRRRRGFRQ
- assay: Radioligand binding experiment for α2C-adrenergic receptor ([3H]-raulwolscine)
- condition_context: CHO cell membranes with human α2C receptor, [3H]raulwolscine 1 nM; read-out: pIC50 α2C (converted)
reported_metric: log10 IC50 (log10 of the value in nM)

compound	log10 IC50
COc1cc2c(cc1N(C)CCO)OCC1C2=NOC1CN1CCN(CC(C)=Cc2ccc(F)cc2)CC1 (stereo not shown)	1.00
CC(=Cc1ccc(F)cc1)CN1CCN(CC2ON=C3c4ccc(NCCO)cc4OCC32)CC1 (stereo not shown)	0.70
CC(=Cc1ccc(F)cc1)CN1CCN(CC2ON=C3c4ccc(NCCN5CCOCC5)cc4OCC32)CC1 (stereo not shown)	0.60
CC(=Cc1ccc(F)cc1)CN1CCN(CC2ON=C3c4ccc(N5CCCC5)cc4OCC32)CC1 (stereo not shown)	0.90
Clc1ccc(CN2CCN(CC3ON=C4c5cc6c(cc5OCC43)NCCO6)CC2)cc1 (stereo not shown)	1.50
CC(=Cc1ccccc1)CN1CCN(CC2ON=C3c4ccc(Nc5ccccc5)cc4OCC32)CC1 (stereo not shown)	1.00
CC(=Cc1ccccc1)CN1CCN(CC2ON=C3c4ccc(N(C)CCO)cc4OCC32)CC1 (stereo not shown) [Compound 31]	0.10
C/C(=C\CN1CCN(CC2ON=C3c4cc5c(cc4OCC32)NCCO5)CC1)c1ccccc1 (stereo not shown)	0.20
CC(=Cc1ccccc1)CN1CCN(CC2ON=C3c4ccc(NC(=O)Nc5cccc(F)c5)cc4OCC32)CC1 (stereo not shown)	1.50
CC(=Cc1ccccc1)CN1CCN(CC2ON=C3c4ccc(N(C)Cc5ccccc5)cc4OCC32)CC1 (stereo not shown) [Compound 48]	1.50
COc1cc2c(cc1N)OCC1C2=NOC1CN1CCN(C/C(C)=C/c2ccccc2)CC1 (stereo not shown)	0.20
COc1cc2c(cc1N)OCC1C2=NOC1CN1CCN(CC(C)=Cc2cccc(F)c2)CC1 (stereo not shown)	0.20
CC(=Cc1ccc(F)cc1)CN1CCN(CC2ON=C3c4ccc(N(C)CCN5CCC5)cc4OCC32)CC1 (stereo not shown)	0.50
CNCCNc1ccc2c(c1)OCC1C2=NOC1CN1CCN(CC(C)=Cc2ccc(F)cc2)CC1 (stereo not shown)	0.50
CC(=Cc1ccc(F)cc1)CN1CCN(CC2ON=C3c4ccc(NC(C)CO)cc4OCC32)CC1 (stereo not shown)	2.10
CCOC(=O)C1CCN(c2ccc3c(c2)OCC2C3=NOC2CN2CCN(CC(C)=Cc3ccc(F)cc3)CC2)CC1 (stereo not shown)	1.30
